biological target: 5-HT1A receptor (Homo sapiens); assay: cAMP accumulation assay, 5-HT1A function; type: cell-based; conditions: in brackets after EC50 or IC50; read-out: 5-HT1A Function cAMP (Emax)
Sequence (P08908 whole entry): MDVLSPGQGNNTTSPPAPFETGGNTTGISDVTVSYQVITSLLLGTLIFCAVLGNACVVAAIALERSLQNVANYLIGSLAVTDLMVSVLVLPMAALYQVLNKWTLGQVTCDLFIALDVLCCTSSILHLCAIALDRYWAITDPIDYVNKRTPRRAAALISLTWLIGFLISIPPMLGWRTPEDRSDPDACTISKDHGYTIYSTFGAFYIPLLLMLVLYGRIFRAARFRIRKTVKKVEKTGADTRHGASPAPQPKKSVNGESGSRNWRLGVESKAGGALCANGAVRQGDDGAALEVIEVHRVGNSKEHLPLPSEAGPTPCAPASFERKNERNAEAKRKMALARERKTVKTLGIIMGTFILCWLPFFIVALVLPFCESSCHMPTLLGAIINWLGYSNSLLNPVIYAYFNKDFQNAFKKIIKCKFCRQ
Emax reference
Express your answer in %, writing the number without its unit.

Examples with answers:
NC(=O)c1ccc(F)c2c1C[C@H](N(CCCCc1c[nH]c3ccc(F)cc13)C1CCC1)CO2 [Compound 83b]	0
NC(=O)c1ccc(F)c2c1CC(N(CCc1c[nH]c3ccc(F)cc13)CC1CC1)CO2 (stereo not shown)	0
NC(=O)c1ccc(F)c2c1CC(N(CCCc1c[nH]c3c(Cl)cccc13)C1CCC1)CO2 (stereo not shown)	0

Lab note: next compound to report on.
Inquiry: Emax for CCCN(CCCCn1ccc2cccc(F)c21)C1COc2c(F)ccc(C(N)=O)c2C1 (stereo not shown) ?
Reply text: 59

Data credit: patent US20050032873A1
